The measurements presented in this section are drawn from ChEMBL document CHEMBL3758120.

Measurement notes: Antiproliferative activity against human MDA-MB-201 cells after 48 hrs by MTT assay
Assay type: functional, cell-based
pIC50: −log10 of the molar value.
We begin with a simple list: items and their reported pIC50.

Ask: Fill in the blank: the reported pIC50 of `N#Cc1nc2c(-c3nc4ccccc4[nH]3)c(N)n(CCc3cc4ccccc4[nH]3)c2nc1C#N` is ____.
Result: < 4.30

Ask: pIC50 for `COc1ccc(CCn2c(N)c(-c3nc4ccccc4[nH]3)c3nc(C#N)c(C#N)nc32)cc1` ?
Result: < 4.30

Ask: Reported pIC50, compound `CCCn1c(N)c(-c2nc3ccccc3[nH]2)c2nc(C#N)c(C#N)nc21` : ____
Result: < 4.30
